# Species: Homo sapiens
# procedure details: Liver toxicity in human assessed as induction of drug-induced liver injury by measuring severity class index; note: key of the grades not given here
Assign DILI_severity_class to each entry below.

Prompt line: Query (molecule): [H]/N=C(/N)N[C@H]1[C@H](O)[C@@H](O)[C@H](O[C@@H]2O[C@@H](C)[C@](O)(C=O)[C@H]2O[C@@H]2O[C@@H](CO)[C@H](O)[C@@H](O)[C@@H]2NC)[C@@H](N/C(N)=N\[H])[C@@H]1O ; field requested: DILI_severity_class
Response line: 0

Prompt line: Fill blank: measured DILI_severity_class of the molecule CC(C)(S)[C@@H](N)C(=O)O is ____.
Response line: 2

Prompt line: Name the recorded DILI_severity_class for CCCCCC(=O)O[C@]1(C(C)=O)CC[C@H]2[C@@H]3CCC4=CC(=O)CC[C@]4(C)[C@H]3CC[C@@]21C [HYDROXYPROGESTERONE CAPROATE] .
Response line: 2

Prompt line: Recorded DILI_severity_class of COc1cc([C@@H]2c3cc4c(cc3[C@@H](O[C@@H]3O[C@@H]5CO[C@@H](C)O[C@H]5[C@H](O)[C@H]3O)[C@H]3COC(=O)[C@H]23)OCO4)cc(OC)c1O [ETOPOSIDE] , please.
Response line: 3

Prompt line: # DILI_severity_class lookup, item CCCCc1oc2ccccc2c1C(=O)c1cc(I)c(OCCN(CC)CC)c(I)c1
Response line: 8

Prompt line: Form field: reported DILI_severity_class of CCOC(Nc1ccc(C(=O)O)cc1)C(=O)c1ccc(-c2ccccc2)cc1 (stereo not drawn)
Response line: 8

Prompt line: Quick one: DILI_severity_class for CCN(CC)CC(=O)Nc1c(C)cccc1C ?
Response line: 0

Prompt line: Requested field: DILI_severity_class. Item: Cc1nc(C)c2c(n1)N(Cc1ccc(-c3ccccc3-c3nnn[nH]3)cc1)C(=O)CC2
Response line: 8

Prompt line: Record request: DILI_severity_class value, item NCCC(O)(P(=O)(O)O)P(=O)(O)O
Response line: 3

Prompt line: Could you tell me which DILI_severity_class is on file for CC(=O)N(O)CCCCCNC(=O)CCC(=O)N(O)CCCCCNC(=O)CCC(=O)N(O)CCCCCN ?
Response line: 0

Prompt line: Look up DILI_severity_class for this molecule: COc1ccc2c3c1O[C@H]1[C@@H](O)C=C[C@H]4[C@@H](C2)N(C)CC[C@@]341
Response line: 0

Prompt line: Any idea what its DILI_severity_class is? The molecule is Nc1ccc(C(=O)O)c(O)c1
Response line: 5

Prompt line: If you can, please state the reported DILI_severity_class value of C[C@@](Cc1ccc(O)c(O)c1)(NN)C(=O)O [CARBIDOPA ANHYDROUS] .
Response line: 3

Prompt line: Recorded DILI_severity_class of O=C1Nc2ccc(Cl)cc2[C@@](C#CC2CC2)(C(F)(F)F)O1 , please.
Response line: 7

Prompt line: Could you share which DILI_severity_class value was measured for O=S(=O)([O-])CCS.[Na+] ?
Response line: 3

Prompt line: // query DILI_severity_class value for entry Nc1nc(Cl)nc2c1ncn2[C@H]1C[C@H](O)[C@@H](CO)O1
Response line: 3

Prompt line: # input molecule: CN1C(=O)OC(C)(C)C1=O ; wanted: its DILI_severity_class
Response line: 5

Prompt line: Field request: DILI_severity_class | item: C[C@H](CCC(=O)O)[C@H]1CC[C@H]2[C@@H]3[C@H](O)C[C@@H]4C[C@H](O)CC[C@]4(C)[C@H]3CC[C@]12C
Response line: 8

Prompt line: Find the recorded DILI_severity_class belonging to O=C(O)c1cc(-c2ccccc2)nc2ccccc12 and report it.
Response line: 8

Prompt line: Record request: DILI_severity_class value, item CN1CCN(CCCN2c3ccccc3Sc3ccc(Cl)cc32)CC1
Response line: 2

Prompt line: Query: DILI_severity_class; subject: CCCCC1=NC2(CCCC2)C(=O)N1Cc1ccc(-c2ccccc2-c2nnn[nH]2)cc1
Response line: 5

Prompt line: Could you tell me which DILI_severity_class is on file for CCC1(c2ccccc2)NC(=O)N(C)C1=O (stereo not drawn) ?
Response line: 5

Prompt line: // DILI_severity_class lookup, key: CN(C)/N=N/c1[nH]cnc1C(N)=O
Response line: 6

Prompt line: // query DILI_severity_class value for entry Cc1nnc2n1-c1ccc(Cl)cc1C(c1ccccc1Cl)=NC2
Response line: 4

Prompt line: What measured DILI_severity_class goes with CC1(C)C(/C=C/C=C/C=C/C=C2/N(CCCCS(=O)(=O)[O-])c3ccc4ccccc4c3C2(C)C)=[N+](CCCCS(=O)(=O)[O-])c2ccc3ccccc3c21.[Na+] ?
Response line: 0

Prompt line: What does the data say about its DILI_severity_class? Entry: CN(C)c1nc(N(C)C)nc(N(C)C)n1
Response line: 2

Prompt line: Consider the molecule shown here: O=C1CC2(CCCC2)CC(=O)N1CCCCN1CCN(c2ncccn2)CC1 What is its recorded DILI_severity_class?
Response line: 3

Prompt line: Tell me the measured DILI_severity_class of Cc1cc(C#N)cc(C)c1Oc1nc(Nc2ccc(C#N)cc2)nc(N)c1Br , please.
Response line: 8

Prompt line: What does the data say about its DILI_severity_class? Entry: CCS(=O)(=O)CCn1c([N+](=O)[O-])cnc1C
Response line: 3

Prompt line: Name the reported DILI_severity_class value associated with the molecule CC(C)CN(C[C@@H](O)[C@H](Cc1ccccc1)NC(=O)O[C@H]1CCOC1)S(=O)(=O)c1ccc(N)cc1
Response line: 3

Prompt line: Using the record for CCCNC(=O)NS(=O)(=O)c1ccc(Cl)cc1 [CHLORPROPAMIDE] , report its DILI_severity_class.
Response line: 2

Prompt line: Give its DILI_severity_class value. Item: FC(F)(F)C(F)(F)C(F)(F)F
Response line: 0

Prompt line: Consider the molecule shown here: C[C@H]1O[C@@H](O[C@H]2[C@@H](O)C[C@H](O[C@H]3[C@@H](O)C[C@H](O[C@H]4CC[C@@]5(C)[C@H](CC[C@@H]6[C@@H]5C[C@@H](O)[C@]5(C)[C@@H](C7=CC(=O)OC7)CC[C@]65O)C4)O[C@@H]3C)O[C@@H]2C)C[C@H](O)[C@@H]1O What is its recorded DILI_severity_class?
Response line: 0

###

# Species: Homo sapiens
# procedure details: Liver toxicity in human assessed as induction of drug-induced liver injury by measuring severity class index
property measured: DILI_severity_class

Prompt line: # DILI_severity_class lookup, item CC(NN)c1ccccc1 (stereo not given)
Response line: 8

Prompt line: Look at this compound and give its reported DILI_severity_class. O=C1CCCC(=O)C1C(=O)c1ccc(C(F)(F)F)cc1[N+](=O)[O-]
Response line: 7

Prompt line: Entry NC(N)=Nc1nc(CSCCC(N)=NS(N)(=O)=O)cs1 has what DILI_severity_class?
Response line: 3

Prompt line: Sample CCC[C@@H]1C[C@@H](C(=O)N[C@@H]([C@H]2O[C@H](SC)[C@H](O)[C@@H](O)[C@H]2O)[C@@H](C)O)N(C)C1 — what was its DILI_severity_class?
Response line: 3

Prompt line: Param item = NC(=O)c1cnccn1 [PYRAZINAMIDE] ; retrieve measured DILI_severity_class.
Response line: 3

###

I'd appreciate it if you could supply DILI_severity_class values for the items below.
# Species on record: Homo sapiens
# procedure details: Liver toxicity in human assessed as induction of drug-induced liver injury by measuring severity class index
Please reply with the value in numeric form only.

Prompt line: Endpoint output: DILI_severity_class of O.O=P(O)(O)C(O)(Cn1ccnc1)P(=O)(O)O . Value?
Response line: 0

Prompt line: For the compound COC(=O)C1=C(C)NC(C)=C(C(=O)OC(C)C)C1c1cccc2nonc12 (centres undefined) , what DILI_severity_class is on record?
Response line: 3

Prompt line: Query (compound): CN1CCN(C(=O)O[C@H]2c3nccnc3C(=O)N2c2ccc(Cl)cn2)CC1 ; field requested: DILI_severity_class
Response line: 3

Prompt line: Sample CC1=NN(c2ccc(C)c(C)c2)C(=O)/C1=N\Nc1cccc(-c2cccc(C(=O)O)c2)c1O.NCCO.NCCO — what was its DILI_severity_class?
Response line: 4

Prompt line: Which DILI_severity_class is reported for this compound? COC(=O)CCc1ccc(OCC(O)CNC(C)C)cc1 (centres undefined)
Response line: 0

Prompt line: Entry CC(C)(N)CO.Cn1c(=O)c2[nH]c(Br)nc2n(C)c1=O : reported DILI_severity_class = ?
Response line: 0

Prompt line: Look at this compound and give its reported DILI_severity_class. CNCC[C@H](Oc1cccc2ccccc12)c1cccs1
Response line: 8

Prompt line: Could you tell me which DILI_severity_class is on file for Cc1ccc(/C(=C\CN2CCCC2)c2ccccn2)cc1 ?
Response line: 0

Prompt line: I have this compound here, CC(C(=O)O)c1cccc(C(=O)c2ccccc2)c1 (centres undefined) , and I need its recorded DILI_severity_class.
Response line: 3
